Kindly supply the reported OD values for the records listed here.
# tested-on: T1, truncated recombinant form of HBeAg containing nine residues of pre-core and the 150 first residues of HBcAg (hepatitis B virus, UniProt P03146 1-150)
# T1 construct: domain: nine residues of pre-core;range 1-150; also called hepatitis B virus e antigen
# assay-method-text: EIA, support-bound peptide, HBeAg 10 ug/ml
Give bare numbers, in OD.

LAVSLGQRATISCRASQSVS [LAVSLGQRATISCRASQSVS (SEQ. ID. No. 16)]    0.06

I need OD for every entry listed below, if you could help.
1. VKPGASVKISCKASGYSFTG (also called Peptide # 25) [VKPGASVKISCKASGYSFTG (SEQ. ID. No. 28)]
2. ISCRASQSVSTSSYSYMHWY [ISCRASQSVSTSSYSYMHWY (SEQ. ID. No. 17)]
3. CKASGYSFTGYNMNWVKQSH (also called Peptide # 26) [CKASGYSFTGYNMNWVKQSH (SEQ. ID. No. 29)]

Solution:
1. 0.096
2. 0.246
3. 0.091

I need OD for every entry listed below, if you could help.
1. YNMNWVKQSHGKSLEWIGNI (also called Peptide # 27) [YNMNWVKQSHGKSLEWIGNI (SEQ. ID. No. 30)]
2. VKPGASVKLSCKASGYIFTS (also called Peptide # 2; Pept. #2) [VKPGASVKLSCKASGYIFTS (SEQ. ID. No. 5)]

Solution:
[0.037, 0.222]

Sourced from patent US20020058247A1
